Molecular target: Cdc25C (Homo sapiens, UniProt P30307)
Sequence (P30307 1-473): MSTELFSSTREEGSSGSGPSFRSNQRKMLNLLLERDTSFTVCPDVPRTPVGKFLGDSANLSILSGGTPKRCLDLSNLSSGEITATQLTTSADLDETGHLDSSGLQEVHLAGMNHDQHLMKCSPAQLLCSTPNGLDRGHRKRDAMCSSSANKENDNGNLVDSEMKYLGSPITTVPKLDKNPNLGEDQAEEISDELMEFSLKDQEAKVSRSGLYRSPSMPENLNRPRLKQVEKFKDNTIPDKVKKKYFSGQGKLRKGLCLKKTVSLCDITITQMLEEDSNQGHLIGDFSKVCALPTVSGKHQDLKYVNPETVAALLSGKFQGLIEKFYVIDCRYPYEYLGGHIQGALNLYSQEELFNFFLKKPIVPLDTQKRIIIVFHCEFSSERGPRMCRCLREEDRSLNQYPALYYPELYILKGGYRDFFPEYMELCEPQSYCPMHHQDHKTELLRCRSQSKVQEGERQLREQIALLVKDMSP
Test: Cdc25C phosphatase inhibition screen at 50 μM
Type: biochemical
Details: read-out: Percent Inhibition at 50 uM compound, Cdc25 C
Recorded inhibition at 50 µM values for a group of compounds are listed next.
Reply with just the number (in %).

# annotated cases, reported inhibition at 50 µM shown
O=C1C=C(O)C(=O)C(c2c[nH]c3cc4c(cc23)OCO4)=C1O ... 63
O=C1C=C(O)C(=O)C(c2c[nH]c3c2ccc2ccccc23)=C1O ... 75
O=C1C=C(O)C(=O)C(c2c[nH]c3ccc(OCc4ccccc4)cc23)=C1O ... 26
O=C1C=C(O)C(=O)C(c2c(C3CC3)[nH]c3ccccc23)=C1O ... 0
O=C1C=C(O)C(=O)C(c2c[nH]c3cccc(F)c23)=C1O ... 0
O=C1C=C(O)C(=O)C(c2c[nH]c3ccc(F)cc23)=C1O ... 23
O=C1C=C(O)C(=O)C(c2c[nH]c3ccc(Br)cc23)=C1O ... 26
O=C1C=C(O)C(=O)C(c2c[nH]c3c(Cc4ccccc4)cccc23)=C1O ... 98
COC1=CC(=O)C(OC)=C(c2c[nH]c3c(F)cccc23)C1=O ... 68
CCc1[nH]c2ccccc2c1C1=C(O)C(=O)C=C(O)C1=O ... 14

Query :: Lab note: need inhibition at 50 µM for Cc1ccc2[nH]cc(C3=C(O)C(=O)C=C(O)C3=O)c2c1 on Cdc25C (Homo sapiens, UniProt P30307), anyone have it?
Result :: 55

Query :: Lab note: need inhibition at 50 µM for CC(C)=CCC/C(C)=C/Cc1cccc2c(C3=C(O)C(=O)C=C(O)C3=O)c[nH]c12 on Cdc25C (Homo sapiens, UniProt P30307), anyone have it?
Result :: 96

Query :: Lab note: need inhibition at 50 µM for COc1ccc2[nH]cc(C3=C(O)C(=O)C=C(O)C3=O)c2c1 on Cdc25C (Homo sapiens, UniProt P30307), anyone have it?
Result :: 0

---

biological target: Cdc25B (Homo sapiens, UniProt P30305); assay: Cdc25B phosphatase inhibition (50 μM screen, 3 pt. and 8 pt. IC-50); format: biochemical; conditions: read-out: Percent Inhibition at 50 uM compound, Cdc25 B
Sequence (P30305 whole entry, species assumed): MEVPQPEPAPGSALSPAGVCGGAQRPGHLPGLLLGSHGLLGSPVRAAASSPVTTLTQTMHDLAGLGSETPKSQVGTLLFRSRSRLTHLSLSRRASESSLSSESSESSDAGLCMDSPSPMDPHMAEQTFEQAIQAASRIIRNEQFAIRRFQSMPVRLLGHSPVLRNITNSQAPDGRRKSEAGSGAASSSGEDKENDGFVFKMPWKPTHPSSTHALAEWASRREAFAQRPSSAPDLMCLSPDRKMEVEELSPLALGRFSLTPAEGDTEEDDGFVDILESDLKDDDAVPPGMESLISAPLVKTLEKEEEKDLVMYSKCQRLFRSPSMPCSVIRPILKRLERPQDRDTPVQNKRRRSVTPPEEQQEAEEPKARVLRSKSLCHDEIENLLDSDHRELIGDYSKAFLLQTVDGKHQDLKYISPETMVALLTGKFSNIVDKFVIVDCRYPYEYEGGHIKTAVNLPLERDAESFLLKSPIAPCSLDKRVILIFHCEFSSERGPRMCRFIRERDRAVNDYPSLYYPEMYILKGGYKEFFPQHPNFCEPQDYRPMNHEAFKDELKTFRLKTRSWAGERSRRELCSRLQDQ
Recorded inhibition at 50 µM values for a group of compounds are listed next.
Reply with just the number (in %).

Cc1ccc2c(C3=C(O)C(=O)C=C(O)C3=O)c[nH]c2c1 ... 16
O=C1C=C(O)C(=O)C(c2c(C3CC3)[nH]c3ccccc23)=C1O ... 32
CC(C)(C)c1[nH]c2ccccc2c1C1=C(O)C(=O)C=C(O)C1=O ... 11

Query :: Return reported inhibition at 50 µM; argument: C=CC(C)(C)c1[nH]c2ccccc2c1C1=C(O)C(=O)C=C(O)C1=O
Result :: 0
